Listing of entries alongside the reported Dmax.
Biological target: Cbl-b (Homo sapiens)
Construct: Cbl-b-HiBit KI Jurkat Cells were purchased from Promega; host or cells: Cbl-b-HiBiT knock-in Jurkat cells
Sequence (Q13191 whole entry): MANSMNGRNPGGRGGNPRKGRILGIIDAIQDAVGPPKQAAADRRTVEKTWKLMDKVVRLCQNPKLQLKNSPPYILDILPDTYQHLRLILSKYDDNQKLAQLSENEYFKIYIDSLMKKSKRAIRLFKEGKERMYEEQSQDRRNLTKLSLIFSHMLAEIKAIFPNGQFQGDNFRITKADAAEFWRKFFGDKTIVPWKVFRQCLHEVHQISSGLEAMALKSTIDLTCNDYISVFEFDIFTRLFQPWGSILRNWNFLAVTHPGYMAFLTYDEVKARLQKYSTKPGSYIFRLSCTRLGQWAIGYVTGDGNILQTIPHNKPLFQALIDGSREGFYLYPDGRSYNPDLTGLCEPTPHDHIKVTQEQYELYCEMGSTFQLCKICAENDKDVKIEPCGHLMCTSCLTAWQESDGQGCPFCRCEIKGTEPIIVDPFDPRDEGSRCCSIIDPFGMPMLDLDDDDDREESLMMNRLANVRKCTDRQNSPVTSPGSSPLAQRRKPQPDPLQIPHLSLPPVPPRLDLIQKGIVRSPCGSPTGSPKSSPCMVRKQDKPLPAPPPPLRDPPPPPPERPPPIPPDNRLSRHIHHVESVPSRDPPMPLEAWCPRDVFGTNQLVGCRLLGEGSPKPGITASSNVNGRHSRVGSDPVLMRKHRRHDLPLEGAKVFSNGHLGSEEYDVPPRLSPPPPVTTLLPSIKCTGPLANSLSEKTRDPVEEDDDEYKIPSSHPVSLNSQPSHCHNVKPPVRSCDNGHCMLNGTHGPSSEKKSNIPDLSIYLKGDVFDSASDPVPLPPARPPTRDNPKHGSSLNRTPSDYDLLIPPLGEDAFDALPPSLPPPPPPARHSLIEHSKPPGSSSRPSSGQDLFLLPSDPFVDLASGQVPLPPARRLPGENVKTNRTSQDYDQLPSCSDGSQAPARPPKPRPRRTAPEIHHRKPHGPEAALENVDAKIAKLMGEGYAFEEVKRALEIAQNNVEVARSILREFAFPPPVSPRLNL
Test: Cbl-b Degradation Method B (Nano-Glo HiBiT lytic detection)
Type: cell-based
Conditions: Cbl-b-HiBit KI Jurkat Cells, incubated at least 6-24 hours; maximum degradation observed; read-out: Cbl-b Degredation Method B Dmax (%)
measured_property: Dmax

[
  {
    "compound": "CC1c2nc(N3CCC(O[C@H]4CC[C@H](CN5CCCN(c6cc7c(c(C(F)(F)F)c6)CN(c6cccc([C@]8(Cc9nncn9C)C[C@@H](C#N)C8)c6)C7=O)CC5)CC4)CC3)ccc2C(=O)N1C1CCC(=O)NC1=O (some centres unmarked)",
    "data_value": "< 35%"
  },
  {
    "compound": "Cn1cnnc1CC1(c2cccc(N3Cc4c(cc(CN5CCN(C[C@H]6CC[C@H](OC7CCN(c8ccc9c(c8)C(=O)N(C8CCC(=O)NC8=O)C9=O)CC7)CC6)CC5)cc4C(F)(F)F)C3=O)c2)COC1 (some centres unmarked)",
    "data_value": "35 to 70%"
  },
  {
    "compound": "C[C@@H]1C[C@H](CN2CCC(CN3CCC(CN4CCN(c5ccc6c(c5)C(=O)N(C5CCC(=O)NC5=O)C6=O)CC4)CC3)CC2)CN(c2cc3c(c(C(F)(F)F)c2)CN(c2cccc(C4(Cc5nncn5C)COC4)c2)C3=O)C1 (some centres unmarked)",
    "data_value": "35 to 70%"
  },
  {
    "compound": "Cn1cnnc1CC1(c2cccc(N3Cc4c(cc(CN5CCN(C[C@H]6CC[C@H](OC7CCN(c8ccc9c(c8F)CN(C8CCC(=O)NC8=O)C9=O)CC7)CC6)CC5)cc4C(F)(F)F)C3=O)c2)COC1 (some centres unmarked)",
    "data_value": "35 to 70%"
  },
  {
    "compound": "Cn1cnnc1C[C@]1(c2cccc(-n3cc4c(C(F)(F)F)cc(N5CC6(CCN(CC7CCN(c8ccc9c(c8Cl)CN(C8CCC(=O)NC8=O)C9=O)CC7)CC6)C5)cc4n3)c2)C[C@H](C#N)C1 (some centres unmarked)",
    "data_value": "< 35%"
  },
  {
    "compound": "CC(C)n1c(=O)n(C2CCC(=O)NC2=O)c2ccc(N3CCC(O[C@H]4CC[C@H](CN5CCN(Cc6cc7c(c(C(F)(F)F)c6)CN(c6cccc([C@]8(Cc9nncn9C)C[C@@H](C#N)C8)c6)C7=O)CC5)CC4)CC3)cc21 (some centres unmarked)",
    "data_value": "> 70%"
  },
  {
    "compound": "Cn1cnnc1CC1(c2cccc(N3Cc4c(cc(N5CCC(CN6CC7(CCN(c8ccc9c(c8)C(=O)N(C8CCC(=O)NC8=O)C9=O)CC7)C6)CC5)cc4C(F)(F)F)C3=O)c2)COC1 (centres unmarked)",
    "data_value": "< 35%"
  },
  {
    "compound": "Cc1cc(N2CCC(CN3CCC4(CC3)CN(c3cc5c(c(C(F)(F)F)c3)CN(c3cccc(C6(Cc7nncn7C)COC6)c3)C5=O)C4)CC2)c(F)c2c1C(=O)N(C1CCC(=O)NC1=O)C2 (centres unmarked)",
    "data_value": "> 70%"
  },
  {
    "compound": "CC1c2nc(N3CCC(O[C@H]4CC[C@H](CN5C[C@@H]6C[C@H]5CN6c5cc6c(c(C(F)(F)F)c5)CN(c5cccc([C@]7(Cc8nncn8C)C[C@H](C#N)C7)c5)C6=O)CC4)CC3)ccc2C(=O)N1C1CCC(=O)NC1=O (some centres unmarked)",
    "data_value": "< 35%"
  },
  {
    "compound": "Cn1cnnc1CC1(c2cccc(-n3cc4c(C(F)(F)F)cc(CN5CCC[C@H](CN6CCN(C[C@H]7CC[C@@H](OC8CCN(c9ccc%10c(c9F)CN(C9CCC(=O)NC9=O)C%10=O)CC8)CC7)CC6(C)C)C5)cc4n3)c2)COC1 (some centres unmarked)",
    "data_value": "> 70%"
  },
  {
    "compound": "CC(C)n1c(=O)n(C2CCC(=O)NC2=O)c2ccc(N3CCC(O[C@H]4CC[C@@H](CN5CCN(C[C@H]6CCCN(Cc7cc8c(c(C(F)(F)F)c7)CN(c7cccc(C9(Cc%10nncn%10C)COC9)c7)C8=O)C6)C(C)(C)C5)CC4)CC3)cc21 (some centres unmarked)",
    "data_value": "> 70%"
  },
  {
    "compound": "Cn1cnnc1CC1(c2cccc(N3Cc4c(cc(CN5CCN(C[C@H]6CC[C@H](OC7CCN(c8ccc9c(c8F)CN(C8CCC(=O)NC8=O)C9=O)CC7)CC6)CC5(C)C)cc4C(F)(F)F)C3=O)c2)CC(C#N)C1 (some centres unmarked)",
    "data_value": "> 70%"
  },
  {
    "compound": "Cn1cnnc1CC1(c2cccc(N3Cc4c(cc(CN5CCC[C@H](CN6CCC(CN7CCC(CN8CCN(c9ccc%10c(c9)C(=O)N(C9CCC(=O)NC9=O)C%10=O)CC8)CC7)CC6)C5)cc4C(F)(F)F)C3=O)c2)COC1 (some centres unmarked)",
    "data_value": "35 to 70%"
  },
  {
    "compound": "C[C@H]1C[C@@H](CN2CCC(CC3CCN(c4ccc5c(c4)C(=O)N(C4CCC(=O)NC4=O)C5=O)CC3)CC2)CN(Cc2cc3c(c(C(F)(F)F)c2)CN(c2cccc(C4(Cc5nncn5C)COC4)c2)C3=O)C1 (some centres unmarked)",
    "data_value": "< 35%"
  },
  {
    "compound": "COc1c(N2CCC(F)(CN3CCC4(CC3)CN(c3cc5c(c(C(F)(F)F)c3)CN(c3cccc(C6(Cc7nncn7C)COC6)c3)C5=O)C4)CC2)ccc2c1CN(C1CCC(=O)NC1=O)C2=O (centres unmarked)",
    "data_value": "35 to 70%"
  },
  {
    "compound": "CC1c2nc(N3CCC(O[C@H]4CC[C@@H](CN5C[C@@H]6C[C@H]5CN6Cc5cc6c(c(C(F)(F)F)c5)CN(c5cccc(C7(Cc8nncn8C)CCC7)c5)C6=O)CC4)CC3)ccc2C(=O)N1C1CCC(=O)NC1=O (some centres unmarked)",
    "data_value": "35 to 70%"
  },
  {
    "compound": "Cn1cnnc1CC1(c2cccc(N3Cc4c(cc(CN5CC[C@H](CN6CCN(C[C@H]7CC[C@H](OC8CCN(c9ccc%10c(c9F)CN(C9CCC(=O)NC9=O)C%10=O)CC8)CC7)CC6)C5)cc4C(F)(F)F)C3=O)c2)COC1 (some centres unmarked)",
    "data_value": "> 70%"
  }
]
